All figures here come from patent US9738902B2.

- TESTED_ON: GST-ABI2 with 6×-His-PYR1^MANDI (Arabidopsis thaliana, UniProt O49686, F108A/F159L/K59R/S122G/V81I/Y58H)
- Sequence (O49686 1-191 Y58H/K59R/V81I/F108A/S122G/F159L): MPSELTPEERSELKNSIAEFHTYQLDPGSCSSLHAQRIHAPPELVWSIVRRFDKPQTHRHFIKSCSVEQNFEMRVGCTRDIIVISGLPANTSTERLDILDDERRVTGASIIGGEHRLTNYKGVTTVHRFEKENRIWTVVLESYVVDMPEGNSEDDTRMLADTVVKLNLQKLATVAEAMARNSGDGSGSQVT
- Sequence (O04719 1-423 partner): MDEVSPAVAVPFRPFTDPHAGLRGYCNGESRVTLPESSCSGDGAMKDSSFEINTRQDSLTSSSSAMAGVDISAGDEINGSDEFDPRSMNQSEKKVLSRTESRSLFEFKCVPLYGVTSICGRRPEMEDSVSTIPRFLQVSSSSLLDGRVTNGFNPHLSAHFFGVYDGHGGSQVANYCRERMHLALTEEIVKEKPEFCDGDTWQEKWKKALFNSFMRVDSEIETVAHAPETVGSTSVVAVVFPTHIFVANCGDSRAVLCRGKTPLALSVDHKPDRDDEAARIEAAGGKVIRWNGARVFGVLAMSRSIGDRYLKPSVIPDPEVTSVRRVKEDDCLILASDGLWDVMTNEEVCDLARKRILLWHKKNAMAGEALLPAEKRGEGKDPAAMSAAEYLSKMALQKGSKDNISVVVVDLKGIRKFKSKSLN
- EXPERIMENT_DESCRIPTION: PP2C enzyme inhibition assay (4-methylumbelliferyl-phosphate)
- APPLIED_CONDITIONS: 100 nM 6×-His-PYR1^MANDI, 50 nM GST-PP2C; read-out: IC50, mandipropamid mediated inhibition of ABI2
- Procedure: We next characterized the effects of recombinant PYR1^MANDI on PP2C activity using the fluorogenic substrate 4-methylumbelliferyl-phosphate. Recombinant receptor and PP2C proteins were prepared as described above and used to examine PP2C inactivation in response to mandipropamid or ABA. […] The assays were conducted at a variety of mandipropamid or ABA concentrations so that IC50 values could be determined. […]

MOLECULE: C#CCOc1ccc(CCNC(=O)C(OCC#C)c2ccc(Cl)cc2)cc1OC (stereo not shown)
IC50 / nM: 75.5

---

- TESTED_ON: GST-HAB1 with 6×-His-PYR1^MANDI (Arabidopsis thaliana, UniProt O49686, F108A/F159L/K59R/S122G/V81I/Y58H)
- Sequence (Q9CAJ0 23-511, one chain of several): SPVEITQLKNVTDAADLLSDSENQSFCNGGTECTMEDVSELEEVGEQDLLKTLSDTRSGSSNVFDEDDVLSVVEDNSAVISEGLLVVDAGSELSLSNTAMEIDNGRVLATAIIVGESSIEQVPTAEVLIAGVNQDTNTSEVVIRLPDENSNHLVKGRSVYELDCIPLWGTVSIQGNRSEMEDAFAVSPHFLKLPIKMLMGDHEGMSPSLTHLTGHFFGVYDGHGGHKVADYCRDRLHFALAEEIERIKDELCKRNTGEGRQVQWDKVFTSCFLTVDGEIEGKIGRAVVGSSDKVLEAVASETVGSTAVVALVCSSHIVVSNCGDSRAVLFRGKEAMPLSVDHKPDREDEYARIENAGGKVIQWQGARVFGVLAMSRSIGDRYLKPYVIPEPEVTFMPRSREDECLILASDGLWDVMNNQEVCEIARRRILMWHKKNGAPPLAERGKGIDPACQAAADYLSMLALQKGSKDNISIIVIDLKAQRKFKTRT
- EXPERIMENT_DESCRIPTION: PP2C enzyme inhibition assay (4-methylumbelliferyl-phosphate)
- APPLIED_CONDITIONS: 100 nM 6×-His-PYR1^MANDI, 50 nM GST-PP2C; read-out: IC50, mandipropamid mediated inhibition of HAB1
pIC50: −log10 of the molar value.
METRIC: pIC50

COMPOUND: C#CCOc1ccc(CCNC(=O)C(OCC#C)c2ccc(Cl)cc2)cc1OC (stereo not shown)
NUMERIC_READOUT: 7.49

---

- TESTED_ON: GST-ABI1 with 6×-His-PYR1^MANDI (Arabidopsis thaliana, UniProt O49686, F108A/F159L/K59R/S122G/V81I/Y58H)
- Construct: made in house; host or cells: E. coli BL21[DE3]pLysS (receptor)
- EXPERIMENT_DESCRIPTION: PP2C enzyme inhibition assay (4-methylumbelliferyl-phosphate)
- Assay type: biochemical
- APPLIED_CONDITIONS: 100 nM 6×-His-PYR1^MANDI, 50 nM GST-PP2C; read-out: IC50, mandipropamid mediated inhibition of ABI1

MOLECULE: C#CCOc1ccc(CCNC(=O)C(OCC#C)c2ccc(Cl)cc2)cc1OC (stereo not shown)
IC50 / nM: 26.8
